Please provide measured IC50 for the entries that follow.
target: DCN1 (DCUND1) protein PONY domain (Homo sapiens (Human), UniProt Q96GG9); experiment: TR-FRET assay (binding to DCN-1, displacement of FAM-labeled probe); conditions: 24 hr after treatment with compound; read-out: TR FRET IC50 24 hr
Sequence (Q96GG9 60-248): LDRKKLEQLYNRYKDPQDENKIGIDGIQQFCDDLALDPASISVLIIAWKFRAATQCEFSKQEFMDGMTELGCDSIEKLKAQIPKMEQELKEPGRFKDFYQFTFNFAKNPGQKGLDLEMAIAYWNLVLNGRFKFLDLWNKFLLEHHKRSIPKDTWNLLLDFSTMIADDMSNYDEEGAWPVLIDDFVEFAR

query: Field request: IC50 | item: CCN1C(=O)[C@H](NC(=O)c2cccc(C(F)(F)F)c2)[C@@H](c2cccc(N(C)C(=O)/C=C/C(F)(F)F)c2)c2cnn(-c3ccccc3)c21 (racemic)
result: 1 to 3 µM

query: Now consider CCN1C(=O)[C@@H](NC(=O)c2cccc(C(F)(F)F)c2)[C@H](c2cccc(NC(=O)C3=CCC3)c2)c2c(C)nn(-c3ccccc3)c21 and answer again.
result: 0.2 to 1 µM

query: C=C(CN1CCN(C2COC2)CC1)C(=O)NCc1cccc([C@@H]2c3c(C)nn(-c4ccccc4)c3N(CC)C(=O)[C@H]2NC(=O)c2cccc(C(F)(F)F)c2)c1 (stereo in doubt) [Compound I-252] , same question.
result: ≤ 0.2 µM

query: How about CCN1C(=O)[C@@H](NC(=O)c2cccc(C(F)(F)F)c2)[C@H](c2cccc(NC(=O)C3=C(C(=O)OC)CC3)c2)c2c(C)nn(-c3ccccc3)c21 ?
result: ≤ 0.2 µM

query: Now the same for C/C=C(\CN1CCC1)C(=O)NCc1cccc([C@@H]2c3cnn(-c4ccccc4)c3N(CC)C(=O)[C@H]2NC(=O)c2nccc(C(F)(F)F)n2)c1
result: ≤ 0.2 µM

query: Also CCN1C(=O)[C@H](NC(=O)c2cccc(C(F)(F)F)c2)[C@@H](c2ccccc2NC(C)=O)c2cnn(-c3ccccc3)c21 (racemic) ?
result: > 3 µM

query: CCN1C(=O)[C@@H](NC(=O)c2cccc(C(F)(F)F)c2)[C@H](c2cccc(CNC(=O)C3=C(C(=O)OC)CC3)c2)c2cnn(-c3ccccc3)c21 , same question.
result: ≤ 0.2 µM

query: Likewise for CCN1C(=O)[C@@H](NC(=O)c2cccc(C(F)(F)F)c2)[C@@H](c2cccc(NC(=O)C3=CCN(C)C3)c2)c2c(C)nn(-c3ccccc3)c21 (racemic) ?
result: 0.2 to 1 µM

query: Moving on to the next compound: CCN1C(=O)[C@@H](NC(=O)c2cccc(C(F)(F)F)c2)[C@H](c2cccc(NC(=O)C3=CCCN(C)C3)c2)c2cnn(-c3ccccc3)c21 (racemic)
result: ≤ 0.2 µM

query: Likewise for C=C(CO)C(=O)NCc1cccc([C@@H]2c3cnn(-c4ccccc4)c3N(CC)C(=O)[C@H]2NC(=O)c2cccc(C(F)(F)F)c2)c1 ?
result: 1 to 3 µM

query: Ok, now C=C(CC(=O)NCc1cccc([C@H]2c3cnn(-c4ccccc4)c3N(CC)C(=O)[C@@H]2NC(=O)c2cccc(C(F)(F)F)c2)c1)C(=O)OC
result: 1 to 3 µM

query: Could you do the same for CCN1C(=O)[C@@H](NC(=O)c2cccc(C(F)(F)F)c2)[C@@H](c2cccc(NC(=O)C3=CCCC3)c2)c2c(C)nn(-c3ccccc3)c21 (racemic) , please?
result: > 3 µM

query: Same for CCC(=O)NCc1cccc([C@@H]2c3cnn(-c4ccccc4)c3N(CC)C(=O)[C@H]2NC(=O)c2ccn(C(F)(F)F)n2)c1
result: 0.2 to 1 µM

query: How about C=C(CN1CCN(C2COC2)CC1)C(=O)NCc1cccc([C@H]2c3cnn(-c4ccccc4)c3N(CC)C(=O)[C@@H]2NC(=O)c2cccc(C(F)(F)F)c2)c1 ?
result: 0.2 to 1 µM

query: Can you handle CCN1C(=O)[C@@H](NC(=O)c2cccc(C(F)(F)F)c2)[C@H](c2cccc(CNC/C=C/C(=O)OC(C)(C)C)c2)c2cnn(-c3ccccc3)c21 next?
result: 0.2 to 1 µM

query: Next compound: C=C(CN1CC2CC(C1)O2)C(=O)NCc1cccc([C@@H]2c3cnn(-c4ccccc4)c3N(CC)C(=O)[C@H]2NC(=O)c2ccn(C(F)(F)F)n2)c1
result: ≤ 0.2 µM

query: Next: C=CC(=O)N(C)c1cccc([C@H]2c3cnn(-c4ccccc4)c3N(CC)C(=O)[C@@H]2NC(=O)c2cccc(C(F)(F)F)c2)c1 (racemic)
result: 1 to 3 µM

query: Now try CCN1C(=O)[C@H](NC(=O)c2cccc(C(F)(F)F)c2)[C@@H](c2cccc(CNC(=O)C3=CCN(C)C3)c2)c2c(C)nn(-c3ccccc3)c21 .
result: 1 to 3 µM

query: Lookup CCN1C(=O)[C@@H](NC(=O)c2cccc(C(F)(F)F)c2)[C@@H](c2cccc(NC(=O)[C@H](F)Cl)c2)c2c(C)nn(-c3ccccc3)c21 (mixture of isomers)
result: > 3 µM

query: Try this compound next: CCN1C(=O)[C@@H](NC(=O)c2nccc(C(F)(F)F)n2)[C@H](c2cccc(NC(=O)C3=CCN(C)C3)n2)c2cnn(-c3ccccc3)c21 (racemic)
result: ≤ 0.2 µM

query: Request: CCN1C(=O)[C@H](NC(=O)c2cccc(C(F)(F)F)c2)[C@@H](c2cccc(NC(=O)C3=CCC3)c2)c2c(C)nn(-c3ccccc3)c21 (racemic) [Compound I-78]
result: 0.2 to 1 µM

query: Also CCN1C(=O)[C@@H](NC(=O)c2cccc(C(F)(F)F)c2)[C@H](c2cc(F)cc(NC(=O)/C=C/CN(C)C)c2)c2cnn(-c3ccccc3)c21 , if possible.
result: ≤ 0.2 µM
